biological target: UniProtKB Q86V86; experiment: Pim3 ATP depletion assay; type: biochemical; conditions: read-out: IC50 (μM) PIM3
PARAMETER MEASURED: IC50

Here are 6 compounds together with their reported answers.
1. COc1ncc(-c2cnc(N)c(C(=O)Nc3ccccc3N3CCNCC3)n2)cn1
1 to 10 µM
2. Nc1cc(-c2ccncc2NC(=O)c2cccc(-c3ccccc3F)n2)nc(C(F)(F)F)n1
< 1 µM
3. Nc1ncc(Br)nc1C(=O)Nc1ccccc1N1CCC(N)CC1
< 1 µM
4. Nc1nccnc1C(=O)Nc1ccccc1N1CCC[C@H](N)C1
< 1 µM
5. Nc1ncc(-c2ccccc2F)nc1C(=O)Nc1cnccc1N1CCC(N)CC1
< 1 µM
6. Cn1cccc1-c1cnc(=O)[nH]c1NC(=O)c1nccnc1N
< 1 µM

Continue with the compound presented below.
Query block: Dear colleague, I am looking for the recorded IC50 of the following compound: "Nc1ccc(-c2scc3c2OCCO3)nc1C(=O)Nc1cnccc1N1CCC[C@H](N)C1"
Result block: < 1 µM
